Values from paper PMC11589570

biological target: GABARAPL2 (Homo sapiens, UniProt P60520); details: residue V51; GABARAPL2:ligand molar ratio 1:2
Sequence (P60520 whole entry): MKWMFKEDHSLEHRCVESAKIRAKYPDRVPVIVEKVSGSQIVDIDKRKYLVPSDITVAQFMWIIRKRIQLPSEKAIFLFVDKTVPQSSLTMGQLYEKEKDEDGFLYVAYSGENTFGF
Readout name: CSP (ppm)
Just the number please, in ppm, no unit attached.

O=c1cc(-c2ccccc2)c2c(O)cc(O)cc2o1 = 0.009
O=C1Nc2ccc(I)cc2C1=Cc1cc(Br)c(O)c(Br)c1 = 0.077
O=C1Nc2ccc(Br)cc2C1=Cc1cc(O)c(O)c(Br)c1 = 0.046

# input for lookup
# input Form field: reported CSP of "Cc1ccc(C(=O)N(CCCN)[C@@H](c2nc3cc(Cl)ccc3c(=O)n2Cc2ccccc2)C(C)C)cc1"
# output 0.00319
